System: MDA-MB-231 breast
Assay: NCI tumour cell line growth inhibition, 48 h; in the data active = GI50 below about 0.43 µM; inactive = the rest
Parameter call: string, one of YES (active), NO (inactive)

Worked set:
- Compound: "O=C(/C=C/CN1CCCCC1)Nc1cc2c(Nc3ccc(F)c(Cl)c3F)ncnc2cc1OCCOC(F)F"
  Target Of Assay: "MDA-MB-231 breast"
  Classification: "NO"
- Compound: "Cc1ccc(S(=O)(=O)NC(CCCCN)C(=O)CCl)cc1 (stereo unspecified)"
  Target Of Assay: "MDA-MB-231 breast"
  Classification: "NO"
- Compound: "CCCCc1ccc(C(N)=O)nc1"
  Target Of Assay: "MDA-MB-231 breast"
  Classification: "NO"
- Compound: "C[CH2][Ge]1([CH2]C)[CH2]CC2(CCN(CCCN(C)C)C2)C[CH2]1"
  Target Of Assay: "MDA-MB-231 breast"
  Classification: "NO"
- Compound: "CCOC(=O)C(Cc1ccc(N(CCCl)CCCl)cc1)NC(=O)C(CC(C)C)NC(C)=O (stereo unspecified)"
  Target Of Assay: "MDA-MB-231 breast"
  Classification: "NO"
- Compound: "COc1cc(C2C3=C(COC3=O)N(CCO)c3cc4c(cc32)CCC4)cc(OC)c1OC (stereo unspecified)"
  Target Of Assay: "MDA-MB-231 breast"
  Classification: "YES"

**Q:** For `O=C1/C(=C/c2ccc([N+](=O)[O-])s2)Oc2ccc(Cl)cc21` , which call appears in the assay record?
**A:** YES

**Q:** Hi, sorry to bother you, what did the test record for `Oc1c(Br)cc(Br)c2cccnc12` ?
**A:** NO

**Q:** Field: outcome | Entry: `Cc1cc(N2CCOCC2)nc(N(CCNc2ccnc3cc(Cl)ccc23)Cc2cccs2)n1`
**A:** NO

**Q:** # fetch the recorded call for CCCCCCn1c(=N)n(CC(O)COc2cccc(C)c2)c2ccccc21 (stereo unspecified) here
**A:** NO

**Q:** Tell me the assay call for `Cc1nn(-c2ccccc2)c2ncc3c(c12)C(=O)N(Cc1ccccc1)C3=O` please.
**A:** NO

###

Below: a set of entries, each annotated with reported TGI.
System: ACHN renal
Assay: NCI tumour cell line growth inhibition, 48 h

Reference set (3 entries):
- Compound: "C=CC(C)(C)c1cc([C@@H]2COc3cc(O)ccc3C2=O)c(O)c(OC)c1OC"
  Target Of Assay: "ACHN renal"
  Quantity Kind: "TGI"
  Endpoint Result: "33.7 µM"
- Compound: "COc1ccc(C2CC(c3cccc(Nc4ccnc5cc(Cl)ccc45)c3)=NN2c2ccc(Cl)cc2)cc1 (stereo unspecified)"
  Target Of Assay: "ACHN renal"
  Quantity Kind: "TGI"
  Endpoint Result: "90.6 µM"
- Compound: "C#Cc1cccc(NC(=O)Nc2cccc(NC(=O)CCl)c2)c1"
  Target Of Assay: "ACHN renal"
  Quantity Kind: "TGI"
  Endpoint Result: "> 82.5 µM"

**Q:** Can you look up the measured TGI of `Clc1ccc(CCN2CCN(CCCc3ccccc3)CC2)cc1Cl` for me?
**A:** 39.4 µM

**Q:** // returns reported TGI for input `CC(=O)CC(=O)Nn1c(-c2cccs2)nc2ccc(I)cc2c1=O`
**A:** > 100 µM

###

Test system: COLO 205 colon
Experiment: NCI tumour cell line growth inhibition, 48 h; in the data active means GI50 below about 0.43 µM; inactive means the rest
One label from this list, please: t = active, f = inactive

- Compound: "COc1cc(C2C3=C(COC3=O)N(CCO)c3cc4c(cc32)CCC4)cc(OC)c1OC (stereo not given)"
  Classification: "t"

**Q:** Hey, what did the test say about `O=C(CCc1nnc2s/c(=C\c3ccc(Cl)cc3Cl)c(=O)n12)Nc1cc(Cl)c(Cl)cc1Cl` ?
**A:** f

**Q:** Per the assay record, what outcome was assigned to `CN(C)c1ccc(/C=C/C(=O)c2ccc(Nc3nc(Nc4ccc(F)cc4)nc(Nc4ccc(Cl)cc4)n3)cc2)cc1` ?
**A:** f

**Q:** // return assay outcome for `Oc1ccc(-c2nc(-c3ccc4oc5ccc(-c6[nH]c(-c7ccc(O)cc7)nc6-c6ccccc6)cc5c4c3)c(-c3ccccc3)[nH]2)cc1`
**A:** f

**Q:** Answer briefly: the call reported for `Nc1cc(N)c2nc(-c3ccccc3)c(Sc3ccc(F)cc3)nc2c1` in this assay.
**A:** f

**Q:** Dear colleague, could you share the recorded outcome for `O=C(/C=C/CN1CCCCC1)Nc1cc2c(Nc3ccc(F)c(Cl)c3F)ncnc2cc1OCCOC(F)F` when you have a moment?
**A:** f

**Q:** Record lookup: outcome of this test for `CNCc1ccc(C)c(NC(=O)c2ccc(Nc3nc(-c4ccccc4)c4ccccc4n3)cc2)c1` ?
**A:** f

**Q:** Name the outcome recorded for `COc1ccc(-c2nccn2-c2cc(OC)c(OC)c(OC)c2)cc1` in the assay.
**A:** f

**Q:** Tell me the recorded outcome of this test for `N#Cc1c(-c2ccc(Cl)cc2)n([O-])c2ccccc2[n+]1=O` .
**A:** f

**Q:** Hey, what did the test say about CCN(CC)CCCC(C)NC(=S)N/N=C(\C)c1ccccn1 (stereo not given) ?
**A:** f
